# System Tested: KRAS (Homo sapiens, UniProt P01116)
# Construct: His6-tagged human KRas Isoform 4B (residues 1-169); His6; made in house; host or cells: E. coli BL21(DE3), PQE80 vector
# Sequence (P01116 1-169 isoform P01116-2): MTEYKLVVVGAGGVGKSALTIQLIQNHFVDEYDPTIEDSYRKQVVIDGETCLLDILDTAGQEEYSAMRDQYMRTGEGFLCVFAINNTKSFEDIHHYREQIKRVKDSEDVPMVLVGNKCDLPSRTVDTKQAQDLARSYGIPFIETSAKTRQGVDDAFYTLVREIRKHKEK
# Assay Info: B-RAP surface immunofluorescent assay, PCC ligand KRas EC50
# Assay type: binding
# Condition Info: 10 μM KRas well of plate #1, pixel by pixel, middle part of centroid
Reported Property: avg F635, Middle Part Centroid
Write the value as a bare number.

Query: Lab note: need avg F635, Middle Part Centroid with KRAS (Homo sapiens, UniProt P01116) for entry CC(C)[C@@H]1NC(=O)[C@H](CCC(=O)O)NC(=O)[C@H](C(C)C)NC(=O)[C@@H](N)Cc2cn(nn2)CCCC[C@@H](C(=O)NCCOCCOCCOCCOCCOCCC(=O)NCCNC(=O)CCCC[C@@H]2SC[C@@H]3NC(=O)N[C@@H]32)NC(=O)[C@@H]2CCCN2C(=O)[C@H](Cc2ccc(O)cc2)NC1=O (single isomer, unassigned) [Ligand L5b, VEVYP] , please look it up.
Response: 32789

* * *

Consider the following compounds and their measured avg F635, Right Part Centroid readings.
# System Tested: KRAS (Homo sapiens)
# Construct: His6-tagged human KRas Isoform 4B (residues 1-169); His6; made in house; host or cells: E. coli BL21(DE3), PQE80 vector
# Assay Info: B-RAP surface immunofluorescent assay, PCC ligand KRas EC50
# Assay type: binding
# Condition Info: 10 μM KRas well of plate #1, pixel by pixel, right part of centroid
Numbered stars: 1 amine (or outer) side, 2 acyl side, 3 side chain; on linkers, the order of the positions; unused ones are H or OH. Bridge positions count the residues as written; N and C are the ends. Square brackets hold non-standard residues; d marks the D form. Triazole bridges read from a SMILES are 1,4-linked. Peptide text beside a SMILES is read from it. * marks the point of attachment. Biotin = O=C1N[C@H]2[C@H](CS[C@H]2CCCCC(=O)*)N1; Lys(N3) = [N-]=[N+]=NCCCC[C@H](N)C(=O)O; Ethylenediamine = C(CN[*:2])N[*:1]; PEG5 = NCCOCCOCCOCCOCCOCCC(=O)O; Pra = C#CC[C@H](N)C(=O)O

// worked examples, avg F635, Right Part Centroid included
Compound: NC(=O)CC[C@@H]1NC(=O)[C@@H](N)Cc2cn(nn2)CCCC[C@@H](C(=O)NCCOCCOCCOCCOCCOCCC(=O)NCCNC(=O)CCCC[C@@H]2SC[C@@H]3NC(=O)N[C@@H]32)NC(=O)[C@H](Cc2ccc(O)cc2)NC(=O)[C@H](Cc2ccccc2)NC(=O)[C@H](CC(N)=O)NC(=O)[C@H](CC(=O)O)NC1=O (single isomer, unassigned) [Ligand L9b, QDNFY]
System Tested: KRAS (Homo sapiens)
Reported Property: avg F635, Right Part Centroid
Measurement: 49508
--
Compound: CC(C)[C@@H]1NC(=O)[C@@H](N)Cc2cn(nn2)CCCC[C@@H](C(=O)NCCOCCOCCOCCOCCOCCC(=O)NCCNC(=O)CCCC[C@@H]2SC[C@@H]3NC(=O)N[C@@H]32)NC(=O)[C@H](Cc2ccc(O)cc2)NC(=O)[C@@H]2CCCN2C(=O)[C@H](C(C)C)NC(=O)[C@H](CCC(=O)O)NC1=O (single isomer, unassigned) [Ligand L4a, VEVPY]
System Tested: KRAS (Homo sapiens)
Reported Property: avg F635, Right Part Centroid
Measurement: 12764

Next item in the queue.
Query: Using the record for CC(C)[C@@H]1NC(=O)[C@@H](N)Cc2cn(nn2)CCCC[C@@H](C(=O)NCCOCCOCCOCCOCCOCCC(=O)NCCNC(=O)CCCC[C@@H]2SC[C@@H]3NC(=O)N[C@@H]32)NC(=O)[C@H](Cc2ccc(O)cc2)NC(=O)[C@@H]2CCCN2C(=O)[C@H](C(C)C)NC(=O)[C@H]([C@@H](C)O)NC1=O [Ligand L6] (H-[Pra]VTVPY[Lys(N3)][PEG5]-{Ethylenediamine-Biotin}; triazole 1-7) , report its avg F635, Right Part Centroid.
Response: 18546

* * *

# System Tested: KRAS (Homo sapiens)
# Construct: His6-tagged human KRas Isoform 4B (residues 1-169); His6; made in house; host or cells: E. coli BL21(DE3), PQE80 vector
# Assay Info: B-RAP surface immunofluorescent assay, PCC ligand KRas EC50
# Assay type: binding
# Condition Info: 10 μM KRas well of plate #1, pixel by pixel, full centroid
Numbered stars: 1 amine (or outer) side, 2 acyl side, 3 side chain; on linkers, the order of the positions; unused ones are H or OH. Bridge positions count the residues as written; N and C are the ends. Square brackets hold non-standard residues; d marks the D form. Triazole bridges read from a SMILES are 1,4-linked. Peptide text beside a SMILES is read from it. * marks the point of attachment. Biotin = O=C1N[C@H]2[C@H](CS[C@H]2CCCCC(=O)*)N1; Lys(N3) = [N-]=[N+]=NCCCC[C@H](N)C(=O)O; Ethylenediamine = C(CN[*:2])N[*:1]; PEG5 = NCCOCCOCCOCCOCCOCCC(=O)O; Pra = C#CC[C@H](N)C(=O)O
Define the label as True when Avg F635, Full Centroid is strictly less than 30000 and as False in all remaining cases.

Compound: CC(C)[C@@H]1NC(=O)[C@H](CCC(=O)O)NC(=O)[C@H](C(C)C)NC(=O)[C@@H](N)Cc2cn(nn2)CCCC[C@@H](C(=O)NCCOCCOCCOCCOCCOCCC(=O)NCCNC(=O)CCCC[C@@H]2SC[C@@H]3NC(=O)N[C@@H]32)NC(=O)[C@@H]2CCCN2C(=O)[C@H](Cc2ccc(O)cc2)NC1=O (single isomer, unassigned) [Ligand L5b, VEVYP]
System Tested: KRAS (Homo sapiens)
Class Name: False

Compound: CC(C)[C@@H]1NC(=O)[C@@H](N)Cc2cn(nn2)CCCC[C@@H](C(=O)NCCOCCOCCOCCOCCOCCC(=O)NCCNC(=O)CCCC[C@@H]2SC[C@@H]3NC(=O)NC32)NC(=O)[C@H](Cc2ccc(O)cc2)NC(=O)[C@@H]2CCCN2C(=O)[C@H](C(C)C)NC(=O)[C@H](CCC(N)=O)NC1=O (some centres unmarked) [Ligand L7, VQVPY]
System Tested: KRAS (Homo sapiens)
Class Name: False

Compound: CC(C)[C@@H]1NC(=O)[C@@H](N)Cc2cn(nn2)CCCC[C@@H](C(=O)NCCOCCOCCOCCOCCOCCC(=O)NCCNC(=O)CCCC[C@@H]2SC[C@@H]3NC(=O)N[C@@H]32)NC(=O)[C@H](Cc2ccc(O)cc2)NC(=O)[C@@H]2CCCN2C(=O)[C@H](C(C)C)NC(=O)[C@H](CCC(=O)O)NC1=O (single isomer, unassigned) [Ligand L4b, VEVPY]
System Tested: KRAS (Homo sapiens)
Class Name: True

Compound: CCC(C)[C@@H]1NC(=O)CNC(=O)[C@H](Cc2cnc[nH]2)NC(=O)[C@@H](N)Cc2cn(nn2)CCCC[C@@H](C(=O)NCCOCCOCCOCCOCCOCCC(=O)NCCNC(=O)CCCC[C@@H]2SC[C@@H]3NC(=O)N[C@@H]32)NC(=O)CNC(=O)[C@H](C(C)C)NC1=O (single isomer, unassigned) [Ligand L1a, HGIVG]
System Tested: KRAS (Homo sapiens)
Class Name: True

Compound: NC(=O)CC[C@@H]1NC(=O)[C@@H](N)Cc2cn(nn2)CCCC[C@@H](C(=O)NCCOCCOCCOCCOCCOCCC(=O)NCCNC(=O)CCCC[C@@H]2SC[C@@H]3NC(=O)N[C@@H]32)NC(=O)[C@H](Cc2ccc(O)cc2)NC(=O)[C@H](Cc2ccccc2)NC(=O)[C@H](CC(N)=O)NC(=O)[C@H](CC(=O)O)NC1=O (single isomer, unassigned) [Ligand L9b, QDNFY]
System Tested: KRAS (Homo sapiens)
Class Name: False

Compound: CC(C)[C@@H]1NC(=O)[C@H](CCC(=O)O)NC(=O)CNC(=O)[C@@H](N)Cc2cn(nn2)CCCC[C@@H](C(=O)NCCOCCOCCOCCOCCOCCC(=O)NCCNC(=O)CCCC[C@@H]2SC[C@@H]3NC(=O)N[C@@H]32)NC(=O)[C@@H]2CCCN2C(=O)[C@H](C(C)C)NC1=O (single isomer, unassigned) [Ligand L3b, GEVVP]
System Tested: KRAS (Homo sapiens)
Class Name: True

Compound: NC(=O)CC[C@@H]1NC(=O)[C@@H](N)Cc2cn(nn2)CCCC[C@@H](C(=O)NCCOCCOCCOCCOCCOCCC(=O)NCCNC(=O)CCCC[C@@H]2SC[C@@H]3NC(=O)N[C@@H]32)NC(=O)[C@H](Cc2ccc(O)cc2)NC(=O)[C@H](Cc2ccccc2)NC(=O)[C@H](CC(N)=O)NC(=O)[C@H](CC(=O)O)NC1=O (single isomer, unassigned) [Ligand L9a, QDNFY]
System Tested: KRAS (Homo sapiens)
Class Name: True

Compound: CC(C)[C@@H]1NC(=O)[C@@H](N)Cc2cn(nn2)CCCC[C@@H](C(=O)NCCOCCOCCOCCOCCOCCC(=O)NCCNC(=O)CCCC[C@@H]2SC[C@@H]3NC(=O)N[C@@H]32)NC(=O)[C@H](Cc2ccc(O)cc2)NC(=O)[C@@H]2CCCN2C(=O)[C@H](C(C)C)NC(=O)[C@H]([C@@H](C)O)NC1=O [Ligand L6] (H-[Pra]VTVPY[Lys(N3)][PEG5]-{Ethylenediamine-Biotin}; triazole 1-7)
System Tested: KRAS (Homo sapiens)
Class Name: True

Compound: CC(C)[C@@H]1NC(=O)[C@@H](N)Cc2cn(nn2)CCCC[C@@H](C(=O)NCCOCCOCCOCCOCCOCCC(=O)NCCNC(=O)CCCC[C@@H]2SC[C@@H]3NC(=O)NC32)NC(=O)[C@H](Cc2ccc(O)cc2)NC(=O)[C@@H]2CCCN2C(=O)[C@H](C(C)C)NC(=O)[C@H](CCC(N)=O)NC1=O (single isomer, unassigned) [Ligand L7b, VQVPY]
System Tested: KRAS (Homo sapiens)
Class Name: True

Compound: CC(C)[C@@H]1NC(=O)[C@@H](N)Cc2cn(nn2)CCCC[C@@H](C(=O)NCCOCCOCCOCCOCCOCCC(=O)NCCNC(=O)CCCC[C@@H]2SC[C@@H]3NC(=O)NC32)NC(=O)[C@H](Cc2ccc(O)cc2)NC(=O)[C@@H]2CCCN2C(=O)[C@H](C(C)C)NC(=O)[C@H](CCC(N)=O)NC1=O (single isomer, unassigned) [Ligand L7a, VQVPY]
System Tested: KRAS (Homo sapiens)
Class Name: False

Field: next compound
Query: Dear reviewer, please state whether CCC(C)[C@@H]1NC(=O)CNC(=O)[C@H](Cc2cnc[nH]2)NC(=O)[C@@H](N)Cc2cn(nn2)CCCC[C@@H](C(=O)NCCOCCOCCOCCOCCOCCC(=O)NCCNC(=O)CCCC[C@@H]2SC[C@@H]3NC(=O)N[C@@H]32)NC(=O)CNC(=O)[C@H](C(C)C)NC1=O (single isomer, unassigned) [Ligand L1b, HGIVG] has Avg F635, Full Centroid strictly beneath 30000.
Response: True

From: patent US20180284123A1
